Tested on: A549/ATCC NSCLC
Assay comment: NCI-60 one-dose screen, 48 h (100 = growth as untreated, 0 = no growth, -100 = all killed)
Run conditions: 10 µM unless noted
Description: Growth inhibition of the A549/ATCC human Non-Small Cell Lung tumor cell line is measured as a screen for anti-cancer activity. Cells are grown in 96 well plates and exposed to the test compound for 48 hours. Compounds are tested at a single concentration, which is 10^-5 M for most compounds. The reported endpoint is percent growth (GI% or GIPRCNT), where numbers from 0 - 100% represent growth inhibition, and numbers from -100% - 0 represent cell death. […]
The panel holds about 83,000 compounds, 20% with a hit somewhere; the sample as a whole holds those more often.
Parameter: growth. Scope: all listed entries.
Reply with just the number (in %).

{"columns": ["Compound", "Display unit", "growth"],
 "data": [
  ["CC(=O)c1ccc(Nc2nccc(-c3ccc4ccccc4c3)n2)cc1", "%", 89.1]
]}

// recorded growth for COc1ccc(CCN(CC(=O)N(CC(N)=O)C2CCC[C@@H]2OCc2ccccc2)C(=O)CN(C(=O)CN(CCc2ccc(Cl)cc2)C(=O)CN(C(=O)CN(C)Cc2ccccc2F)[C@H](C)C2CCCCC2)[C@H](C)C2CCCCC2)cc1OC (stereo partly drawn) : 23.4

Just so you know, measured growth for CCN1C(=O)N(CC)C2Nn3c(s/c(=C\c4ccccc4Br)c3=O)=NC21 (stereo not drawn) came out at 12.7

growth recorded for this compound, `CCn1c(-c2cc3c([nH]c4ccccc43)c(-c3cccc(O)c3)n2)n[nH]c1=S` , is 38

// growth lookup, compound = `CCCCNC(=O)Oc1ccc(/C(=C(/C)Cc2ccc(OC)cc2)c2ccc(OCCN3CCCCC3)cc2)cc1` , result: 61

// growth value for `Cc1n[nH]c2ccc(Br)cc2c1=O` : 99

The recorded growth for entry `O=C1/C=C/[C@@H](O)[C@@H]2C[C@@H](O)C[C@H]2/C=C/CCC[C@@H](O)CCO1` equals 89.3

Recorded growth (compound `COC1=C(C)C(=O)N2[C@@H]1[C@H](c1ccccc1)OC21C=CC(=O)C=C1` ): 82.3

* * *

This section presents molecules with their documented growth values.
System: NCI-H322M lung
Assay comment: NCI-60 one-dose screen, 48 h (100 = growth as untreated, 0 = no growth, -100 = all killed)
Run conditions: 10 µM unless noted
The panel holds about 83,000 compounds, 20% with a hit somewhere; the sample as a whole holds those more often.
Write the number in % without appending the unit.

// known answers, use as guide
{"columns": ["Molecule", "Display unit", "growth"],
 "data": [
  ["C/C(=N\\O)[C@@H]1CC[C@]2(CO)CC[C@]3(C)[C@H](CC[C@@H]4[C@@]5(C)CCCNC(C)(C)[C@@H]5CC[C@]43C)[C@@H]12", "%", 94.2],
  ["COc1ccc(/C=C2\\COc3ccc(O)cc3C2=O)cc1", "%", 100],
  ["NC(=O)c1c(NC(=O)c2cccs2)sc2c1CCC(=O)C2", "%", 77.2],
  ["Cc1ccccc1Nc1cc(O)c2c(=O)cc(-c3ccccc3)oc2c1", "%", 70.5],
  ["COc1cccc(C(=O)NNc2nc(Cl)nc(Cl)n2)c1", "%", 98.5],
  ["O=C1/C=C/[C@@H](O)[C@@H]2C[C@@H](O)C[C@H]2/C=C/CCC[C@H](CCO)O1", "%", 29.3],
  ["C=C(C)[C@@H]1CC[C@]2(C(N)=O)CC[C@]3(C)[C@H](CC[C@@H]4[C@@]5(C)CC[C@H](OCCC#N)C(C)(C)[C@@H]5CC[C@]43C)[C@@H]12", "%", 73.3],
  ["Oc1ccc(/C=C/c2ccc(O)cc2)cc1", "%", 58.5]
]}

Lookup result for `C[C@@H]1O[C@@H](O[C@@H]2C[C@H](c3ccc4c(c3O)C(=O)C3=C(C4=O)[C@@]4(O)C(=O)C[C@](C)(O)C[C@@]4(O)C=C3)O[C@H](C)[C@H]2O)CC[C@@H]1O[C@H]1C[C@@H](O)[C@H](O)[C@@H](C)O1` ; measured growth: 106

The value of growth measured for the molecule `COc1ccc2c(c1)c(-c1nc(-c3c[nH]c4ncccc34)cs1)cn2CCO` turned out to be 47.6
